Test: Rodent pharmacokinetic study
Format: in vivo, rat
Conditions: rat, plasma, iv; 1 mg/kg i.v. (bolus), male Wistar rats
Protocol: Rodent Pharmacokinetic Study Male Wistar rats (260±50 grams) were used as experimental animals. Animals were housed individually in polypropylene cage. […] At pre-determined point, blood was collected through jugular vein and replenished with an equivalent volume of normal saline. […] The concentrations of the test compounds were quantified in plasma by qualified LC-MS/MS method using suitable extraction technique. The test compounds were quantified in the calibration range around 1-1000 ng/mL in plasma. […]
Listed here are compounds together with their documented half-life.

{"compound": "O=C(N[C@H]1CCCC[C@@H]1O)C1=CN(Cc2ccc(Cl)nc2)c2ccccc2O1 [Example 21]", "unit_abbrev": "h", "half-life": 1.7}
{"compound": "COc1cc(CN2C=C(C(=O)N[C@H]3CCCC[C@@H]3O)Oc3ccccc32)ccn1 [Example 11]", "unit_abbrev": "h", "half-life": 1.9}
{"compound": "O=C(N[C@H]1CCCC[C@@H]1O)C1=CN(Cc2cccc(F)c2F)c2ccccc2O1 [Example 18]", "unit_abbrev": "h", "half-life": 2.1}
{"compound": "O=C(N[C@H]1CCCC[C@@H]1O)C1=CN(Cc2cccc(F)c2F)c2ncccc2O1 [Example 33]", "unit_abbrev": "h", "half-life": 1.2}
{"compound": "O=C(N[C@H]1CCCC[C@@H]1O)C1=CN(Cc2ccc(F)c(F)c2)c2ccccc2O1 [Example 19]", "unit_abbrev": "h", "half-life": 3.8}
{"compound": "O=C(N[C@H]1CCCC[C@@H]1O)C1=CN(Cc2cccc(F)c2)c2cccc(F)c2O1 [Example 51]", "unit_abbrev": "h", "half-life": 3.6}

* * *

Test: Rodent pharmacokinetic study
Format: in vivo, rat
Details: 1 mg/kg i.v. (bolus), male Wistar rats
parameter_measured: AUC0-t (ng·h/mL)

{"smiles_representation": "O=C(N[C@H]1CCCC[C@@H]1O)C1=CN(Cc2ccccn2)c2ccccc2S1", "obs_value": 262}
{"smiles_representation": "COc1ccc(CN2C=C(C(=O)N[C@H]3CCCC[C@@H]3O)Oc3ccccc32)cc1", "obs_value": 1150}
{"smiles_representation": "O=C(N[C@H]1CCCC[C@@H]1O)C1=CN(Cc2ccccc2)c2ccccc2O1", "obs_value": 415}
{"smiles_representation": "O=C(N[C@H]1CCCC[C@@H]1O)C1=CN(Cc2cccc(F)c2F)c2ncccc2O1", "obs_value": 452}
{"smiles_representation": "O=C(N[C@H]1CCCC[C@@H]1O)C1=CN(Cc2cccc(C(F)(F)F)c2)c2ccccc2O1", "obs_value": 600}
{"smiles_representation": "COc1cc(CN2C=C(C(=O)N[C@H]3CCCC[C@@H]3O)Oc3ccccc32)ccn1", "obs_value": 838}
{"smiles_representation": "O=C(N[C@H]1CCCC[C@@H]1O)C1=CN(Cc2cccc(F)c2F)c2ccccc2O1", "obs_value": 929}
{"smiles_representation": "O=C(N[C@H]1CCCC[C@@H]1O)C1=CN(Cc2cccc(F)c2)c2cccc(F)c2O1", "obs_value": 533}

* * *

Assay: Rodent pharmacokinetic study
Assay type: in vivo, rat
Conditions: 1 mg/kg i.v. (bolus), male Wistar rats

{"smiles_representation": "O=C(N[C@H]1CCCC[C@@H]1O)C1=CN(Cc2ccncc2)c2ccccc2O1", "unit_abbrev": "ng·h/mL", "AUC0-t": 419}
{"smiles_representation": "O=C(N[C@H]1CCCC[C@@H]1O)C1=CN(Cc2ccc(Cl)nc2)c2ccccc2O1", "unit_abbrev": "ng·h/mL", "AUC0-t": 1490}
{"smiles_representation": "COc1cccc(CN2C=C(C(=O)N[C@H]3CCCC[C@@H]3O)Oc3ccccc32)c1", "unit_abbrev": "ng·h/mL", "AUC0-t": 711}
{"smiles_representation": "O=C(N[C@H]1CCCC[C@@H]1O)C1=CN(Cc2ccc(F)c(F)c2)c2ccccc2O1", "unit_abbrev": "ng·h/mL", "AUC0-t": 1240}
{"smiles_representation": "O=C(N[C@H]1CCCC[C@@H]1O)C1=CN(Cc2ccccc2F)c2ccccc2O1", "unit_abbrev": "ng·h/mL", "AUC0-t": 834}
{"smiles_representation": "O=C(N[C@H]1CCCC[C@@H]1O)C1=CN(Cc2cccc(F)c2)c2ccccc2O1", "unit_abbrev": "ng·h/mL", "AUC0-t": 553}
